# ASSAY_NAME: Pharmacokinetics and oral bioavailability of GS-441524 in CD-1 mice
# Format: in vivo
# COND: male, CD-1, mouse, plasma, po, 10 mg/kg, AUC0‒t, po 10 mg/kg, CD-1 mice
READOUT_KIND: AUC (µM·h)
Your answer should be a plain number; it is taken to be in µM·h.

query: Annotate the molecule `N#C[C@@]1(c2ccc3c(N)ncnn23)O[C@H](CO)[C@@H](O)[C@H]1O` with its measured AUC.
result: 16.8

###

# ASSAY_NAME: Pharmacokinetics and oral bioavailability of GS-441524 in CD-1 mice
# Format: in vivo
# COND: male, CD-1, mouse, plasma, po, 10 mg/kg
READOUT_KIND: MRT (h)
A number alone suffices; assume h.

query: Please give the documented MRT of `N#C[C@@]1(c2ccc3c(N)ncnn23)O[C@H](CO)[C@@H](O)[C@H]1O`
result: 4.2
